Tested on: U2OS
measurement protocol: Multiplex assay against U2OS
Type: toxicity, cell-based
conditions used: human, 24 h, 1 µM, compound concentration 1 uM, replicate 1
quantity measured: Population Normal (%)

Lookup: Field request: Population Normal (%) | item: `COc1cc2c(NC3CCN(C(C)C)CC3)nc(N3CCC(F)(F)CC3)nc2cc1OCCCN1CCCC1`
Found: 88%

Lookup: So what does the record say about Population Normal (%) for `Nc1ccc(C(=O)Nc2cccc(-c3nc(N4CCOCC4)c4oc5ncccc5c4n3)c2)cn1` ?
Found: 92%

Lookup: Look up Population Normal (%) for this molecule: CCn1c(-c2nonc2N)nc2cnc(Oc3cccc(NC(=O)c4ccc(OCCN5CCOCC5)cc4)c3)cc21 [GSK-269962A]
Found: 92%
